Data credit: ChEMBL document CHEMBL4261589

For each entry below, report its IC50 value.
Biological target: Calpain-1 catalytic subunit (Sus scrofa, UniProt P35750)
Sequence (P35750 whole entry): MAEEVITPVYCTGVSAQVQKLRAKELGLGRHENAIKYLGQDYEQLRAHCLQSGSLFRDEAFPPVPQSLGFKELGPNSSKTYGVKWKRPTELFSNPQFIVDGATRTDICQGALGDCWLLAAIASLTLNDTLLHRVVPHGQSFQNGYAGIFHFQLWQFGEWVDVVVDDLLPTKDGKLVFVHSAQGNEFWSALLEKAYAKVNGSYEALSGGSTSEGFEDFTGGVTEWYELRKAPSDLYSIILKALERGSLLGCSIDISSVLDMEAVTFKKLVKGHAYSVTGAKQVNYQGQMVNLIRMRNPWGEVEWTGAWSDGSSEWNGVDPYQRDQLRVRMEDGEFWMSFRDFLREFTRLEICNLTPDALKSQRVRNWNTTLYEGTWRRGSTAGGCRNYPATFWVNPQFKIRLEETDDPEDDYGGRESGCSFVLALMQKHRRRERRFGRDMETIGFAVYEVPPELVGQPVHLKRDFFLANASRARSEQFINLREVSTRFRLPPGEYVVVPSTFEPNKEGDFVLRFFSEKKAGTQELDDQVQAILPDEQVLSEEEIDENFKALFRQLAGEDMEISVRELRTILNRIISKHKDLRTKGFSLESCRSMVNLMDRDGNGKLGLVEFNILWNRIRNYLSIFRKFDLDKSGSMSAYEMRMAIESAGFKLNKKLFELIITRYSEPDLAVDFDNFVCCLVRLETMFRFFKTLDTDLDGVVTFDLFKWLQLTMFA
Experiment: Inhibition of full length porcine Calpain-1 complex using (H2NeK(-FAM)-EVYGMMK(DABCYL)eOH) substrate by FRET assay
Conditions: read-out: IC50
Numeric answer only, unit µM assumed.

IC50 recorded for this molecule, "FC(F)(F)c1ccc(CSc2nnc3ccc(-c4ccccn4)nn23)cc1" , is 20.5

IC50 recorded for this molecule, "O=C(O)/C(S)=C/c1ccc(I)cc1" , is 19.3
